Data origin, for the record: patent US20140162942A1

# target.under.test: CYP2E1 (Homo sapiens)
# Construct: Pooled human liver microsomes (from sixteen individuals) were used as the source of enzymes; tissue XenoTech, LLC; host or cells: human liver microsomes, pool of sixteen donors
# Sequence (P05181 whole entry): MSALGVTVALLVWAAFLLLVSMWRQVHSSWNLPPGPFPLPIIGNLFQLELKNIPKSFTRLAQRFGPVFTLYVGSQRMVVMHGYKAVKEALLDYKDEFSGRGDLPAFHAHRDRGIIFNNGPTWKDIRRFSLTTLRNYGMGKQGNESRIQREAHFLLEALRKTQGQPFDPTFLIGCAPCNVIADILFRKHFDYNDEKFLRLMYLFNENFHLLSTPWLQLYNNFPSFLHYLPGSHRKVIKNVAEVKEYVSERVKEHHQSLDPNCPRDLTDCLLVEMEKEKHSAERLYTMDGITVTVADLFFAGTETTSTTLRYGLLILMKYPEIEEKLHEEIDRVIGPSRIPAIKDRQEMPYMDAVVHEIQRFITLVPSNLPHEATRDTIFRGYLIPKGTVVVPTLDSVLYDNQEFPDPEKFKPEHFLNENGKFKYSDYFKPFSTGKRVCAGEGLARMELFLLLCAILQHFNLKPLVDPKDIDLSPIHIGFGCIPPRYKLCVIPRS
# test: CYP2E1 inhibition, chlorzoxazone 6-hydroxylation in human liver microsomes
# Assay type: in vitro ADME
# experimental.setup: direct inhibition, zero-minute pre-incubation, pooled human liver microsomes
pIC50: −log10 of the molar value.
assay.endpoint: pIC50

CC(C)(C)NC(=O)NC(C(=O)N1CC2C([C@H]1C(=O)NC(CC1CCC1)C(=O)C(N)=O)C2(C)C)C(C)(C)C (stereo partly shown) has a reported pIC50 of < 4.00

----------
# target.under.test: CYP2C19 (Homo sapiens)
# Construct: Pooled human liver microsomes (from sixteen individuals) were used as the source of enzymes; tissue XenoTech, LLC; host or cells: human liver microsomes, pool of sixteen donors
# Sequence (P33261 whole entry): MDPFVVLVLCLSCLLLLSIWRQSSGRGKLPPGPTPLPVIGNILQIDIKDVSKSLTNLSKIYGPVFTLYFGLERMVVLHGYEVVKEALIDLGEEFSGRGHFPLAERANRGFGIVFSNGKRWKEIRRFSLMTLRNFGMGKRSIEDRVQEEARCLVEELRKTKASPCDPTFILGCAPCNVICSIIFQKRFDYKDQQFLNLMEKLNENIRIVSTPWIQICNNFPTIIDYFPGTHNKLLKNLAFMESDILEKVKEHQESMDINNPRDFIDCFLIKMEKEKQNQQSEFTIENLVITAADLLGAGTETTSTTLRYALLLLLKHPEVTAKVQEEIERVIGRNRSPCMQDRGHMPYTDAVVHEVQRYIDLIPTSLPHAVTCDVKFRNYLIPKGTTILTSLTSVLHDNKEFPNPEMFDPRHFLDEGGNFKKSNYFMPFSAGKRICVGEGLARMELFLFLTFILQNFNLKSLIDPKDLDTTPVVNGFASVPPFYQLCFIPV
# test: CYP2C19 inhibition, S-mephenytoin 4′-hydroxylation in human liver microsomes
# Assay type: in vitro ADME
# experimental.setup: direct inhibition, zero-minute pre-incubation, pooled human liver microsomes
assay.endpoint: IC50

So for CC(C)(C)NC(=O)NC(C(=O)N1CC2C([C@H]1C(=O)NC(CC1CCC1)C(=O)C(N)=O)C2(C)C)C(C)(C)C (stereo partly shown) , the logged IC50 turned out to be > 100 µM
